systemUnderTest: Tumor necrosis factor receptor superfamily member 10B (Homo sapiens)
protocolSummary: TRAIL sensitizers in caspase-8 expressing neuroblastoma cells, dose response, NB7 cells plus caspase-8, luminescence, panel (AID 652002)
testParameters: NB7 neuroblastoma +caspase-8, TRAIL sensitization, luminescence viability, NB7+Caspase-8, with TRAIL, run 2; at 12.5 µM (top of the series)
Threshold-based label: activity, % sensitization under 40% gives condition met, activity, % sensitization not under 40% gives condition not met.

Illustrative cases are given below, each with its answer.
[ask] Record Cc1ccc(N=C/C(C(=O)C(F)(F)F)=C(\O)c2cccs2)cc1 : is its activity, % sensitization strictly below 40%?
[reply] condition not met

[ask] Record CCOC(=O)c1sc(NC(=O)Nc2ccc(F)cc2)nc1C : is its activity, % sensitization strictly below 40%?
[reply] condition met

[ask] Record COc1ccccc1C=NNC(=O)NN=Cc1ccccc1OC : is its activity, % sensitization strictly below 40%?
[reply] condition not met

[ask] Record Cc1ccc2oc(-c3cccc(N)c3)nc2c1 : is its activity, % sensitization strictly below 40%?
[reply] condition not met

[ask] Record O=C1Cc2c(-c3ccccc3)cc(-c3cccc(Cl)c3)nc2-c2ccccc2N1 : is its activity, % sensitization strictly below 40%?
[reply] condition met

[ask] Record C#CC(=O)CC1(CN(Cc2ccccc2)C(=O)OC(C)(C)C)CCCCC1 : is its activity, % sensitization strictly below 40%?
[reply] condition met

More entries:
[ask] Record CCCCc1nc(NCCN)c(C#N)c2c1CSC(C)(C)C2 : is its activity, % sensitization strictly below 40%?
[reply] condition met

[ask] Record O=C(N/N=C/c1ccc2cccnc2c1)c1ccco1 : is its activity, % sensitization strictly below 40%?
[reply] condition not met

[ask] Record COc1ccc(NS(=O)(=O)c2cccc(C(=O)N/N=C/c3c(F)c(F)c(F)c(F)c3F)c2)cc1 : is its activity, % sensitization strictly below 40%?
[reply] condition met

[ask] Record COc1ccc(-c2nc(-c3ccc(NC(=O)c4ccncc4)cc3)no2)cc1OC : is its activity, % sensitization strictly below 40%?
[reply] condition met

[ask] Record Nc1ccccc1C(=O)NN=Cc1cccc([N+](=O)[O-])c1 : is its activity, % sensitization strictly below 40%?
[reply] condition not met

[ask] Record O=C(N/N=C/c1cccc(OC(=O)c2ccco2)c1)c1ccc(F)cc1 : is its activity, % sensitization strictly below 40%?
[reply] condition not met

====

protocolSummary: caspase-8 TRAIL sensitization, hit retest, confirmation, cell-based, NB7+caspase-8, with/without TRAIL, luminescence panel (AID 651596)
testParameters: NB7 neuroblastoma + caspase-8, without TRAIL, luminescence viability, without TRAIL, mean of runs, at 10 µM
quantityName: activity (%)
Report as a plain number; the unit % is understood.

The measured activity associated with COC(=O)Cn1c(=O)c(C(=O)CCl)c(N)n(Cc2ccccc2)c1=O reads 94.7

The measured activity associated with O=[N+]([O-])c1c(Nc2ccccc2O)cc(Cl)c2nonc12 reads 98.3

The measured activity associated with COc1ccc(C2=NN(C(=O)COC(=O)c3ccc(S(C)(=O)=O)c([N+](=O)[O-])c3)C(c3ccco3)C2)cc1 (stereo not drawn) reads 98.5

The measured activity associated with Cc1ccc(CN2[C@@H](Cc3ccccc3)C(=O)CS2(=O)=O)cc1 reads 60.2

The measured activity associated with C#CC(=O)CC1(CN(Cc2ccccc2)C(=O)OC(C)(C)C)CCCCC1 reads 49.4

The measured activity associated with CCN(CC)c1ccc(NC(=O)c2ccco2)cc1 reads 50.3

The measured activity associated with COc1ccc(NC(=O)c2cccc(N3C(=O)c4ccc(C(=O)Nc5ccc(OC)c(O)c5)cc4C3=O)c2)cc1O reads 85.6

The measured activity associated with COc1nn(-c2ccccc2)c(=O)c(Cl)c1Cl reads 96.3

More entries:
The measured activity associated with Cc1ccc(-n2nnc(-c3cccnc3Cl)n2)cc1 reads 47.5

The measured activity associated with Clc1ccc(-c2nnc(-c3ccccc3)o2)c(Cl)c1 reads 79

The measured activity associated with O=C(NN=Cc1ccc2c(c1)CCN2)c1cccs1 reads 57.8

The measured activity associated with Cc1ccc(NC2=Nc3ccccc3CS2)cc1 reads 38

The measured activity associated with CN(C)CCCN(C(=O)/C=C/c1cccs1)c1nc2c(F)cccc2s1 reads 93

The measured activity associated with Cc1cc(O)c(C(=O)/C=C/c2ccc(Cl)cc2)c(=O)o1 reads 79.5

The measured activity associated with O=C1Cc2c(-c3ccccc3)cc(-c3cccc(Cl)c3)nc2-c2ccccc2N1 reads 39.5

The measured activity associated with Clc1ccc(Cn2ncc3c(N4CCN(c5ccccc5)CC4)ncnc32)cc1 reads 66.8

The measured activity associated with NC(Cc1ccccc1)c1csc(NC(=O)Nc2ccccc2Oc2ccccc2)n1 (stereo not drawn) reads 78.7

====

protocolSummary: caspase-8 TRAIL sensitization, hit retest, confirmation, cell-based, NB7+caspase-8, with/without TRAIL, luminescence panel (AID 651596)
testParameters: NB7 neuroblastoma + caspase-8, without TRAIL, luminescence viability, without TRAIL, mean of runs, at 10 µM
Recorded activity, one value per entry.
Report as a plain number; the unit % is understood.

The measured activity associated with CNC(=O)c1cc(Oc2ccc(NC(=O)Nc3ccc(Cl)c(C(F)(F)F)c3)cc2)ccn1 reads 63.2

The measured activity associated with Cc1nn(-c2ccccc2)c(Cl)c1CN(C(=O)CCl)c1cccc2ccccc12 reads 99.7

The measured activity associated with COc1ccc(C(=O)Nc2ccccc2C(=O)Nc2cccnc2)cc1 reads 55.5

The measured activity associated with Clc1ccccc1Nc1nnc(-c2ccncc2)s1 reads 63.3

More entries:
The measured activity associated with Cc1cc(NC(=O)C2CCCC2)nc2c1c(=O)oc1ccccc12 reads 50.2

The measured activity associated with CCn1cc(C(=O)NCC(OC)OC)c(=O)c2cc(S(=O)(=O)N3CCC(C)CC3)ccc21 reads 64.5

The measured activity associated with COc1ccc(-c2cc(-c3ccccc3)c(C#N)c(S(C)=O)n2)cc1 (stereo not given) reads 99.2

The measured activity associated with COc1ccc(NC(=O)c2nc(S(=O)(=O)Cc3cccc(C)c3)ncc2Cl)c(OC)c1 reads 66.4

The measured activity associated with Cc1ccc(-c2cnc3cc(C)nn3c2)cc1 reads 66.8

The measured activity associated with CC(C)(C)OC(=O)NCCCCCNC(=O)c1[nH]cnc1C(=O)Nc1cc(Br)ccc1F reads 63.6

====

systemUnderTest: Tumor necrosis factor receptor superfamily member 10B (Homo sapiens)
protocolSummary: caspase-8 TRAIL sensitization, hit retest, confirmation, cell-based, NB7+caspase-8, with/without TRAIL, luminescence panel (AID 651596)
testParameters: NB7 neuroblastoma + caspase-8, TRAIL sensitization, luminescence viability, with TRAIL, mean of runs, at 10 µM, stronger effect = higher value
quantityName: activity (%)
Report as a plain number; the unit % is understood.

See these solved cases before continuing.
The measured activity associated with CCc1nc(N)nc(N)c1-c1ccc(NCCN)c([N+](=O)[O-])c1 reads 80.7

The measured activity associated with Cc1cccc(-c2noc(-c3ccc4c(c3)OCO4)n2)c1 reads 64.6

More entries:
The measured activity associated with CCOC(=O)c1sc2nc(-c3cccnc3)ccc2c1N reads 56

The measured activity associated with NNC(=O)C1CCCn2c1nc1sc3c(c1c2=O)CCCC3 (stereo unspecified) reads 51

The measured activity associated with COc1ccc(S(=O)(=O)N2CCC(C(=O)NCCC3=CCCCC3)CC2)cc1C reads 13.8

The measured activity associated with OCC1OC(n2ccc3c2ncn2ncnc32)C(O)C1O (stereo unspecified) reads 93.8

====

protocolSummary: TRAIL sensitizers in caspase-8 expressing neuroblastoma cells, dose response, NB7 cells plus caspase-8, luminescence, panel (AID 652002)
testParameters: NB7 neuroblastoma +caspase-8, no TRAIL, compound-alone cytotoxicity counter-screen, luminescence viability, NB7+Caspase-8, run 1; at 12.5 µM (top of the series) unless noted
quantityName: activity, % sensitization (%)
Report as a plain number; the unit % is understood.

The measured activity, % sensitization associated with CN1C[C@@H]2[C@@H]3C(=O)N(Cc4ccccc4)C(=O)[C@@H]3[C@](Cc3ccccc3)(C1=O)N2C(=O)c1ccc(C(C)(C)C)cc1 reads 7.44

The measured activity, % sensitization associated with O=C1c2ccc3c4c(ccc(c24)C(=O)N1c1cccc(O)c1)C(=O)N(c1cccc(O)c1)C3=O reads 29.8

The measured activity, % sensitization associated with O=C(NNC(=O)c1cc(OCC(F)(F)F)ccc1OCC(F)(F)F)c1ccc(Cl)c(Cl)c1 reads -2.88

More entries:
The measured activity, % sensitization associated with CC(C)C(=O)Nc1ccc(NC(=O)c2ccccn2)cn1 reads 8.97

====

Recorded inhibition, one value per entry.
systemUnderTest: Sentrin-specific protease 6 (Homo sapiens)
protocolSummary: SENP6 protease inhibitors, confirmation, biochemical, luminescence, single concentration (AID 488915)
testParameters: recombinant SENP6, Z-RLRGG-aminoluciferin luminescence; at 12.5 µM; stronger effect = higher value
The list shows a part of the results. Calls of active or inactive are those of the source.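 How the source made its calls: active means mean inhibition above about 50% in the one-dose retest (limit read from the data); inactive means the rest.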

// compound O=C(Nc1ccccc1)Nc1nc2ccccc2s1 , assay Sentrin-specific protease 6 (Homo sapiens), inhibition value: 29% (inactive)

// compound Cc1cccc(-c2noc(-c3ccc(F)cc3)n2)c1 , assay Sentrin-specific protease 6 (Homo sapiens), inhibition value: 69.8% (active)

// compound COc1ccc(Nc2nc(-c3ccccc3)cs2)cc1 , assay Sentrin-specific protease 6 (Homo sapiens), inhibition value: 89.6% (active)

// compound O=c1c2cc(-c3ccccc3)sc2nc2n1N=C(c1cccs1)CS2 , assay Sentrin-specific protease 6 (Homo sapiens), inhibition value: 3.2% (inactive)

// compound COC(=O)c1sc(NC(=O)c2ccc(OC)cc2OC)nc1C , assay Sentrin-specific protease 6 (Homo sapiens), inhibition value: 34.4% (inactive)
